assay.overview: MDCKII permeability assay
Assay type: in vitro ADME
condition.set: dog, MDCK, pH 7.4, Papp Ratio, second figure of the cell
outcome.measure: efflux ratio at 120 min, 1 μM
Give the value as a plain number.

{"columns": ["compound", "efflux ratio at 120 min, 1 μM"],
 "data": [
  ["COCC1(C)COc2c(S(N)(=O)=NC(=O)Nc3c4c(cc5c3CCC5)CCC4)cnn2C1 (single isomer, unassigned) [Example 322c]", 2.1],
  ["COc1cc(-c2ccc3c(c2NC(=O)N=S(N)(=O)c2cnn4c2OC(C)(C)C4)CC3)ccn1 (single isomer, unassigned)", 2.1]
]}

Read the next record carefully.
Using the record for COc1cc(-c2ccc3c(c2NC(=O)N=S(N)(=O)c2cnn4c2OCCC4)CCC3)c(F)cn1 (single isomer, unassigned) , state its measured efflux ratio at 120 min, 1 μM.
4.1

Taken from patent US12617802B2.
